system: NCI-H23; test: NCI tumour cell line growth inhibition, 48 h
Calls of active or inactive are those of the source. Cut-off read from the data, not from the text of the source: active = GI50 up to about 1.1 µM and inactive = higher.
ASSAY_READOUT: GI50

Reported GI50, molecule CC(=O)NC(C)c1ccc(/N=N/N2CCCC2)cc1 (stereo not drawn) : ____
> 100 µM (inactive)

Reported GI50, molecule O=C(NC(Nc1ccc(F)cc1)(C(F)(F)F)C(F)(F)F)C(C(F)(F)F)C(F)(F)F : ____
18.1 µM (inactive)

Reported GI50, molecule CC(=O)O[C@H]1[C@H](O[C@H]2CC[C@]34C[C@]35CC[C@]3(C)[C@@H]([C@@]6(C)CC[C@@H](C(C)(C)O)O6)[C@@H](O)C[C@@]3(C)[C@@H]5C[C@H](O[C@@H]3O[C@H](CO)[C@@H](O)[C@H](O)[C@H]3O)[C@H]4C2(C)C)OC[C@@H](O)[C@@H]1O : ____
> 100 µM (inactive)

Reported GI50, molecule O=C(CC1(O)C(=O)Nc2c(Cl)cccc21)c1ccccc1 (stereo not drawn) : ____
> 100 µM (inactive)

Reported GI50, molecule CCNCCCCNCCCCNCCCCNCCCCNCC : ____
9.08 µM (inactive)

Reported GI50, molecule COC1(OC)C2(Cl)C(Cl)=C(Cl)C1(Cl)C1c3ccc(C(C)=O)c4cccc(c34)C12 (stereo not drawn) : ____
7.16 µM (inactive)

Reported GI50, molecule CC(C)(C)c1cc(C(=O)/C=C/c2cc[nH]n2)cc(C(C)(C)C)c1O : ____
2.78 µM (inactive)

Reported GI50, molecule N#CSCc1cccc(Nc2cc(=O)[nH]c(=O)[nH]2)c1 : ____
> 100 µM (inactive)
